# Tested On: monkey GPC3-His protein (monkey)
# Assay Procedure: ELISA, monkey GPC3-His coated; antibody 66.66 nM
# OD450 nm per record follows
Answer with a number only.

A selection of reference data follows.
## Input Identify measured OD450 nm associated with hAb007LH3L1a (antibody, human IgG1, V domains shown) VH: EVQLVQSGAEVKKPGSSVKVSCKASGYTFTDYEMHWVRQAPGQGLEWMGTIDPETGNTAYNQKFKGRVTLTADKSTSTAYMELSSLRSEDTAVYYCTRPYSLTYWGQGTLVTVSS VL: DIVMTQTPLSLPVTPGEPASISCRSSQSFVHSDGDTYLQWYLQKPGQSPQLLIYKVSNRFSGVPDRFSGSGSGTDFTLKISRVEAEDVGVYYCFQGSHVPYTFGQGTKLEIK
## Output 2.34

## Input Identify measured OD450 nm associated with hAb005LH2L1b (antibody, human IgG1, V domains shown) VH: EVQLVQSGAEVKKPGASVKVSCKASGYTFTDYEMHWVRQAPGQGLEWMGAIDPETGNTAYIQKFKGRVTLTTDKSTSTAYMELRSLRSDDTAVYYCTRFYSYSHWGQGTTVTVSS VL: DIVMTQTPLSLPVTPGEPASISCRSSQSLVHSNRNTYLHWYLQKPGQSPQLLIYKVSNRFSGVPDRFSGSGSGTDFTLKISRVEAEDVGVYYCSQNTHVPPTFGGGTKVEIK
## Output 1.23

Continuing:
## Input Identify measured OD450 nm associated with hAb003LH1L1b (antibody, human IgG1, V domains shown) VH: EVQLVQSGAEVKKPGSSVKVSCKASGYTFSDYEMHWVRQAPGQGLEWMGTIDPETGNTAYTQKFMDRVTITADKSTSTAYMELSSLRSEDTAVYYCTRGYSFTYWGQGTLVTVSS VL: DIVMTQTPLSLPVTPGEPASISCRSSQNIVHSNRNTYLQWYLQKPGQSPQLLIFKVSNRFSGVPDRFSGSGSGTDFTLKISRVEAEDVGVYYCFQGSHVPFTFGQGTKLEIK
## Output 2.55
